biological target: HLA-B*48:01; assay: IEDB peptide-MHC binding, purified MHC/direct/fluorescence; filed as Kd, often an IC50 or EC50 that approximates it; bounds were set here for any values at or beyond the usual limits of such assays; conditions: source organism: Bacillus anthracis
value-type: Kd

>>> measured_result("VTECKLIYY")
"≥ 20 µM"

---

target: HLA-B*15:01; assay: IEDB peptide-MHC binding, purified MHC/direct/fluorescence; filed as Kd, often an IC50 or EC50 that approximates it; bounds were set here for any values at or beyond the usual limits of such assays; conditions: source organism: Influenza A virus (A/goose/Guangxi/1097/2004(H5N1))
value-type: Kd

>>> measured_result("KYTSGRQEK")
"≥ 20 µM"
